Tested on: NCI-H460 lung
test_method_notes: NCI-60 one-dose screen, 48 h (100 = growth as untreated, 0 = no growth, -100 = all killed)
condition_parameters: 10 µM unless noted
About 83,000 compounds went through this panel and 20% of them were active in at least one assay; those are over-represented in the sample as a whole.
# Lookup of reported growth keyed by entry
Note: unit % is implicit; provide only the numeric part.

# count of solved cases: 5
- compound: "COc1ccc(/C=C2\\NC(=S)NC2=O)cc1"
  unit_of_measure: "%"
  growth: 104
- compound: "COc1cc(Oc2cc(-c3cccnc3)ccc2NC(=O)Nc2ccc(F)cc2F)cc(OC)c1OC"
  unit_of_measure: "%"
  growth: 99.1
- compound: "Cc1ccc([N+](=O)[O-])cc1NC(=O)Nc1cccc(F)c1"
  unit_of_measure: "%"
  growth: 47.2
- compound: "Cc1cc2c(C#N)n3c(c2cc1C)C(=O)C(c1ccccc1)Oc1ccccc1-3 (centres undefined)"
  unit_of_measure: "%"
  growth: 42.1
- compound: "COc1ccc(-c2cc(Cc3cccs3)c(=O)n(Cn3ccc4ccccc43)n2)cc1"
  unit_of_measure: "%"
  growth: 115

Task: State, in one line, measured growth of OC(c1cc(C(F)(F)F)nc2c(C(F)(F)F)cccc12)C1CCCCN1 (centres undefined)
Result: 13.8

Task: State, in one line, measured growth of `O=C(CCc1nnc2sc(Cc3ccccc3Cl)nn12)c1nc2ccccc2[nH]1`
Result: 99.5

Task: State, in one line, measured growth of `C=C(C)[C@@H]1C[C@H](O)Cc2cc(Cl)cc(Cl)c2N1`
Result: 110

Task: State, in one line, measured growth of CC(CCC(=O)O)(NC(=O)c1ccc([N+](=O)[O-])cc1)C(=O)O (centres undefined)
Result: 107

Task: State, in one line, measured growth of COc1cccc2c1C(=O)c1c(O)c3c(c(O)c1C2=O)C[C@@](O)(/C(C)=N/NC(=O)c1cccc([N+](=O)[O-])c1)C[C@@H]3OC1CC(N)C(O)C(C)O1 (some centres undefined)
Result: -38.5
